- condition-context: buffer; pH 7.4; 200.0 µM
Kind request: treat 5 µg/mL as inclusive, so solubility kinetic at 5 µg/mL or higher is TRUE, anything lower is FALSE.

Problem: Test whether the molecule "CC(C)N(Cc1ccccc1)C(=O)COC(=O)c1cc[n+]([O-])cc1" records solubility kinetic of 5 µg/mL or higher.
Solution: TRUE

Problem: Test whether the molecule "Cc1cccc(S(=O)(=O)NC2CCCCCCC2)c1" records solubility kinetic of 5 µg/mL or higher.
Solution: TRUE

Problem: Test whether the molecule Cc1cc(C)nc(N2CCCC(C(=O)Nc3ccc(F)cc3)C2)n1 (configuration not stated) records solubility kinetic of 5 µg/mL or higher.
Solution: FALSE

Problem: Test whether the molecule "CC(=O)Nc1ccc(C(=O)OCC(=O)NCc2ccc3c(c2)OCO3)cc1" records solubility kinetic of 5 µg/mL or higher.
Solution: TRUE

Problem: Test whether the molecule "O=C(NCc1cccs1)c1cccn2c(=O)c3sccc3nc12" records solubility kinetic of 5 µg/mL or higher.
Solution: FALSE
